# Run description: NCI Yeast Anticancer Drug Screen. Data for the sgs1 mgt1 strain (AID 161);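 note: 0% = growth of cultures given vehicle only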
# Reported conditions: S. cerevisiae sgs1 mgt1 strain, at 50.0 µM (retest, dose inferred, filed as 5.0)
This is part of a sample that, as a whole, favours compounds with a hit. Of some 79,000 tested, about 15% had one in any assay. The source made the active and inactive calls. Cut-off read from the data, not from the text of the source: active = growth inhibition above about 70%; inactive = the rest.
I would appreciate it if you answered using one of these outcomes: yes (active), no (inactive)

Ask: Could you check what this test reported for CC(=O)[O-].O=[N+]([O-])c1ccc([O-])c(C=NCCN=Cc2cc([N+](=O)[O-])ccc2[O-])c1.[Mn+3] ?
Reply: yes

Ask: Could you check what this test reported for N#CS.[Ag] ?
Reply: yes

Ask: Could you check what this test reported for CN(C=O)NC(=O)N(CCCl)N=O ?
Reply: no

Ask: Could you check what this test reported for [Cl][Hg][c]1ccc2ccccc2c1 ?
Reply: yes

Ask: Could you check what this test reported for O=[As](O)(O)CCc1ccccc1 ?
Reply: no

Ask: Could you check what this test reported for O=[N+]([O-])c1ccc(CS(=O)(=O)C(Cl)Cl)o1 ?
Reply: yes

Ask: Could you check what this test reported for COc1ccc2c(c1)CCC(N1CCCC(=O)C1)C2 (stereo not given) ?
Reply: no

Ask: Could you check what this test reported for [I][Hg][CH2]C1OCCOC1[CH2][Hg][I] (stereo not given) ?
Reply: no

Ask: Could you check what this test reported for CO/C1=C\C(C)=C\C(C)C(O)C(C)C/C(C)=C/C=C/C(OC)C(C(C)C(O)C(C)C2(O)CC(O)C(C)C(C(C)C)O2)OC1=O (stereo not given) ?
Reply: yes

Ask: Could you check what this test reported for O=C(c1ccc2ccccc2c1)N1CC1 ?
Reply: no

* * *

# Run description: NCI Yeast Anticancer Drug Screen. Data for the mlh1 rad18 strain (AID 175)
# Reported conditions: S. cerevisiae mlh1 rad18 strain growth inhibition; at 50.0 µM; active compounds read high
The panel holds about 79,000 compounds, 15% with a hit somewhere; the sample as a whole holds those more often. Calls of active or inactive are those of the source. No stated cut-off is given here; in the data, active means growth inhibition above about 70%; inactive means the rest.
Test readout: growth inhibition

Ask: Check the records and state growth inhibition for CCC[CH2][Sn]([CH3])([CH3])[CH2]CC[N+](C)(C)C
Reply: 13.5% (inactive)

Ask: Check the records and state growth inhibition for COc1nc2ccccc2nc1N1CC1
Reply: -1.65% (inactive)

Ask: Check the records and state growth inhibition for Cc1cc(-c2ccccc2)cc(C)[n+]1CC[n+]1c(C)cc(-c2ccccc2)cc1C
Reply: -19.4% (inactive)

Ask: Check the records and state growth inhibition for O=c1c2ccccc2sc2c1c(N(CCCl)CCCl)cc1ccccc12
Reply: 18.8% (inactive)

Ask: Check the records and state growth inhibition for N#Cc1ccc(N)cc1
Reply: -16.8% (inactive)

Ask: Check the records and state growth inhibition for COc1ccc(N=NC(=O)NC(CC(C)C)C(=O)NCC(=O)O)cc1 (stereo unspecified)
Reply: 5.35% (inactive)

Ask: Check the records and state growth inhibition for CCC(=O)O[C@H]1CC[C@H]2[C@@H]3CCC4=C/C(=N/NC(=O)c5cccc6c(=O)c7ccccc7[nH]c56)CC[C@]4(C)[C@H]3CC[C@]12C
Reply: -7.95% (inactive)

Ask: Check the records and state growth inhibition for O=C1NCCCCC1Cl (stereo unspecified)
Reply: 14.5% (inactive)

Ask: Check the records and state growth inhibition for C[n+]1ccccc1-c1ccc[n+](CCCC[n+]2cccc(-c3cccc[n+]3C)c2)c1
Reply: 20% (inactive)

Ask: Check the records and state growth inhibition for NC(P(=O)(O)O)P(=O)(O)O
Reply: 7.1% (inactive)

Ask: Check the records and state growth inhibition for CN(C)C(=S)Oc1ccc(S(=O)(=O)F)cc1
Reply: 20.9% (inactive)

Ask: Check the records and state growth inhibition for CN1C(=O)C23CC4=CC=CC(O)C4N2C(=O)C1(CO)SS3 (stereo unspecified)
Reply: 93.5% (active)

Ask: Check the records and state growth inhibition for C/C(=N\N=C(N)N)C(CN1CCCCC1)C(c1ccccc1)c1c(O)c2ccccc2oc1=O (stereo unspecified)
Reply: 16.9% (inactive)

Ask: Check the records and state growth inhibition for C[N+]1(CCCl)CCc2cc([N+](=O)[O-])ccc2C1 (stereo unspecified)
Reply: -9.8% (inactive)

Ask: Check the records and state growth inhibition for CCCCC(Br)C(=O)OCC (stereo unspecified)
Reply: 11.8% (inactive)

Ask: Check the records and state growth inhibition for CC(NC(=O)C(c1ccccc1)c1ccccc1)C(=O)O (stereo unspecified)
Reply: 14.9% (inactive)
